- system: EGFR (human, UniProt P00533)
- methodDescription: SPR
pKd: −log10 of the molar value.
propertyName: pKd

[[record]]
binder = "EG2_24_86 (antibody, V domains shown) VH: QVQLVESGGGLVQAGDSLRVSCCASGRDFSDYVMGWFRQAPGKEREFVAAISRNGLTTRYADSVKGRFTISRDNDKNCVYLQMNSLKPEDTAVYYCAVNSAGTYVSPRSREYDYWGQGTQVTVSS"
reportedvalue = 7.20


I. EG2_4_25 (antibody, V domains shown) VH: QVQCVESGGGLVQAGDSLRVSCACSGRDFSDYVMGWFRQAPGKEREFVAAISRNGLTTRYADSVKGRFTISRDNDKNMVYLQMNSLKPEDTAVYYCAVNSAGTYVSPRSREYDYWGQGTQVTVSS
II. EG2_22_88 (antibody, V domains shown) VH: QVQLVESGGGLVQAGDSLRVCCAASGRDFSDYVMGWFRQAPGKEREFVAAISRNGLTTRYADSVKGRFTISRDNDKNMVCLQMNSLKPEDTAVYYCAVNSAGTYVSPRSREYDYWGQGTQVTVSS
Choose between I and II : whose measured pKd value is numerically larger? Label of pick, please.
I
